The entries below come with measured Percent Control values attached.
System: CHEK1
condition_parameters: Compound Concentration (nM):1000;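 further: KINOMEscan scanMAX binding as percent activity remaining versus control; lower means stronger binding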
Put down the number, then write its unit next to it.

Illustrative cases are given below, each with its answer.
molecule	readout_type	reported_value
COc1ccc(COc2ccc(Cc3cnc(N)nc3N)cc2OC)cc1 [GW632580X]	Percent Control	91%
COc1cc2ncnc(Nc3ccc4c(cnn4Cc4ccccc4)c3)c2cc1OC.Cl [GW282449A]	Percent Control	100%
O=C1Nc2ccc(C(=O)c3ccco3)cc2C1=Cc1cc(Cl)c(O)c(Cl)c1 [GW406108X]	Percent Control	100%

For record Cl.O=S1CCN(Cc2ccc(-c3ccc4ncnc(Nc5ccc(OCc6ccccc6)c(F)c5)c4c3)o2)CC1 [GW576924A] the listed Percent Control is 100%

Summary for this molecule, COC(=O)Nc1nc2ccc(Oc3ccc(NC(=O)Nc4cc(C(F)(F)F)ccc4F)cc3)cc2s1.Cl [GW693917A] : Percent Control is 95%

Value of measured Percent Control for the entry Cl.O=C(O[C@H]1CN[C@H](C#Cc2cc3ncnc(Nc4ccc5c(cnn5Cc5ccccc5)c4)c3s2)C1)N1CCOCC1 [GSK200398A] : 100%

Sure, the documented Percent Control for Nc1ncnc2occ(-c3ccc(NC(=O)Nc4cc(C(F)(F)F)ccc4F)cc3)c12 [GW770249X] is 100%

Percent Control recorded for this molecule, NS(=O)(=O)c1ccc(N/N=C2\C(=O)Nc3ccc(Cl)cc32)cc1 [GW280670X] , is 100%

Memo: Cl.O=C(Nc1ccc(Oc2ccc3[nH]c(NC(=O)c4ccco4)nc3c2)cc1)Nc1cc(C(F)(F)F)ccc1F [GW683134A] , reported Percent Control: 88%

---

Test system: AMPK-alpha1
Construct: gene PRKAA1
condition_parameters: Compound Concentration (nM):1000
Each record here notes measured Percent Control.
Quick note: give the figure in %, leave out the unit.

Below, each entry is followed by its recorded Percent Control result.
molecule	value_unit	Percent Control
CC1=C(C(=O)Nc2ccc3[nH]ncc3c2)C(c2ccc3ccccc3c2)CC(=O)N1 (centres unmarked) [GSK270822A]	%	76
Cl.O=S1CCN(Cc2ccc(-c3ccc4ncnc(Nc5ccc(OCc6ccccc6)c(F)c5)c4c3)o2)CC1 [GW576924A]	%	100
COc1ccc(COc2ccc(Cc3cnc(N)nc3N)cc2OC)cc1 [GW632580X]	%	89
Cl.O=C(Nc1ccc(Oc2ccc3[nH]c(NC(=O)c4ccco4)nc3c2)cc1)Nc1cc(C(F)(F)F)ccc1F [GW683134A]	%	67

The molecule COc1cc2ncn(-c3cc(O[C@H](C)c4ccccc4Cl)c(C(N)=O)s3)c2cc1OC [GSK237701A] showed Percent Control equal to 54

get_value(item= COc1ccc2c(-c3ccnc(Nc4cccc(OC(F)(F)F)c4)n3)cnn2n1 [GW810372X] , readout=Percent Control) returns 100

Kindly note the recorded Percent Control for CC(C)COC(=O)c1ccc2c(c1)/C(=C/Nc1ccc(S(N)(=O)=O)cc1)C(=O)N2 [GW416981X] , which is 100

Lab book: Percent Control of "O=C(Nc1n[nH]c2nc(-c3ccc(O)cc3)c(Br)cc12)C1CC1" noted as 100

---

Test system: AKT2
condition_parameters: Compound Concentration (nM):1000
Reported Percent Control values for a set of compounds
Just the number in %, nothing appended.

compound	value_unit	reported_value
COc1ccc2[nH]c3c4[nH]c5ccc(OC)cc5c4c4c(c3c2c1)C(=O)NC4=O [GW296115X]	%	84
CCS(=O)(=O)c1ccc(OC)c(Nc2ncc(-c3cccc(OC)c3)o2)c1 [GW580509X]	%	100
Cl.O=S1CCN(Cc2ccc(-c3ccc4ncnc(Nc5ccc(OCc6ccccc6)c(F)c5)c4c3)o2)CC1 [GW576924A]	%	100
C[C@@H](Oc1cc(-n2cnc3ccc(OC4CCN(C)CC4)cc32)sc1C(N)=O)c1ccccc1Cl [GSK579289A]	%	100
CCS(=O)(=O)c1ccc(OC)c(Nc2ncc(-c3cccc(F)c3)o2)c1 [GW621970X]	%	100
NS(=O)(=O)c1ccc(N/N=C2\C(=O)Nc3ccc(C(=O)NCc4ccncc4)cc32)cc1 [GW300657X]	%	100

Percent Control for CN(C)c1cc2c(Nc3ccc4c(cnn4Cc4ccccc4)c3)ncnc2cn1 [GW282974X] is 100

Reported Percent Control ( NS(=O)(=O)c1ccc(N/N=C2\C(=O)Nc3ccc(Cl)cc32)cc1 [GW280670X] ) = 100

# Percent Control (compound: NS(=O)(=O)c1ccc(Nc2ncc(-c3ccccc3)o2)cc1 [GW572399X] ) is 100

Entry COc1cc(N2CCN(C(C)C)CC2)ccc1Nc1nc(Nc2ccc(F)cc2C(=O)NC[C@@H](O)CO)c2cc[nH]c2n1 [GSK1392956A] , Percent Control reported as 100

Percent Control in this record for "O=C(Nc1n[nH]c2nc(-c3ccc(O)cc3)c(Br)cc12)C1CC1" : 100

The recorded Percent Control for CC1=C(C(=O)Nc2ccc3[nH]ncc3c2)C(c2ccc3ccccc3c2)CC(=O)N1 (stereo not drawn) [GSK270822A] is 100

Kindly note the recorded Percent Control for "CCn1c(-c2nonc2N)nc2c(C#CC(C)(C)O)nc(OCCNC)cc21.Cl" , which is 3.1

# Percent Control of "NS(=O)(=O)c1ccc(N/N=C2\C(=O)Nc3ccc(-c4cnco4)cc32)cc1" = 65

COc1cc2ncnc(Nc3ccc4c(cnn4Cc4ccccc4)c3)c2cc1OC.Cl [GW282449A] has a reported Percent Control of 100

# Percent Control (compound: COc1cc(C=NNc2ncnc3c2cnn3-c2ccccc2)ccc1O [GW513184X] ) is 100

Form field Percent Control, entry NS(=O)(=O)c1ccc(N/N=C2\C(=O)Nc3ccc(C(=O)NCCc4c[nH]cn4)cc32)cc1 [GW300660X] : 100

Consider COc1ccc2c(-c3ccnc(Nc4cccc(OC(F)(F)F)c4)n3)cnn2n1 [GW810372X] . Its measured Percent Control is 100

# Percent Control of COc1cccc(-c2c[nH]c3c(N/N=C/c4ccncc4)ncnc23)c1 [GW814408X] = 100

Reported Percent Control of CC(C)COC(=O)c1ccc2c(c1)/C(=C/Nc1ccc(S(N)(=O)=O)cc1)C(=O)N2 [GW416981X] : 100

The compound identified as COC(=O)Nc1nc2ccc(Oc3ccc(NC(=O)Nc4cc(C(F)(F)F)ccc4F)cc3)cc2s1.Cl [GW693917A] registered its Percent Control at 100

---

Listing of entries alongside the reported Percent Control.
System: CSNK2A2
condition_parameters: Compound Concentration (nM):1000
State just the number; it will be interpreted in %.

Example entries begin here.
compound	Percent Control / %
COc1cccc(-n2ncc3c(N/N=C/c4ccncc4)ncnc32)c1 [GW784752X]	2.9
CC1=C(C(=O)Nc2ccc3[nH]ncc3c2)C(c2ccc3ccccc3c2)CC(=O)N1 (centres unmarked) [GSK270822A]	80
Cl.O=C(Nc1ccc(Oc2ccc3[nH]c(NC(=O)c4ccco4)nc3c2)cc1)Nc1cc(C(F)(F)F)ccc1F [GW683134A]	91
Cl.O=S1CCN(Cc2ccc(-c3ccc4ncnc(Nc5ccc(OCc6ccccc6)c(F)c5)c4c3)o2)CC1 [GW576924A]	100
COc1cccc(-c2c[nH]c3c(N/N=C/c4ccncc4)ncnc23)c1 [GW814408X]	1.5
NS(=O)(=O)c1ccc(N/N=C2\C(=O)Nc3ccc(Cl)cc32)cc1 [GW280670X]	54
CC1=C(C(=O)Nc2ccc3[nH]ncc3c2)C(c2ccc(Cl)c(Cl)c2)CC(=O)N1 (centres unmarked) [GSK299115A]	79

Per the record, Cl.O=C(Nc1ccc(Oc2ccc3[nH]c(NC(=O)c4ccccc4)nc3c2)cc1)Nc1cc(C(F)(F)F)ccc1F [GW709042A] has Percent Control of 72

---

System: YES
Construct: gene YES1
condition_parameters: Compound Concentration (nM):1000
# Percent Control values compiled below
Give a bare numeral; the unit % is implied.

molecule	measured_on	reported_value
CC1=C(C(=O)Nc2ccc3[nH]ncc3c2)C(c2ccc(Cl)c(Cl)c2)CC(=O)N1 (centres unmarked) [GSK299115A]	YES	81
Cl.O=C(Nc1ccc(Oc2ccc3[nH]c(NC(=O)c4ccco4)nc3c2)cc1)Nc1cc(C(F)(F)F)ccc1F [GW683134A]	YES	61
COc1cc(C)c(N(C)C(=O)CN(C)C)cc1Nc1nc(Nc2cccc(F)c2C(N)=O)c2cc[nH]c2n1	YES	96
NS(=O)(=O)c1ccc(N/N=C2\C(=O)Nc3ccc(-c4cnco4)cc32)cc1	YES	69
CC1=C(C(=O)Nc2ccc3[nH]ncc3c2)C(c2ccc3ccccc3c2)CC(=O)N1 (centres unmarked) [GSK270822A]	YES	68
Cl.c1ccc(Cc2nc3ccc(Nc4ncnc5ccccc45)cc3[nH]2)cc1 [GR269666A]	YES	100
Nc1ncnc2occ(-c3ccc(NC(=O)Nc4cc(C(F)(F)F)ccc4F)cc3)c12 [GW770249X]	YES	98

Query C/C(Nc1ccc(S(N)(=O)=O)cc1)=C1/C(=O)Nc2ccccc21 [GW335962X] on YES; Percent Control returned: 100

Reference source: paper PMC7826789
